- System name: ATM (Homo sapiens, UniProt Q13315)
- Construct: detecting phosphorylation of Chk2 in a human non-small cell lung cancer cell line NCI-H460 (ATCC company); host or cells: NCI-H460 human non-small cell lung cancer cells
- Sequence (Q13315 whole entry): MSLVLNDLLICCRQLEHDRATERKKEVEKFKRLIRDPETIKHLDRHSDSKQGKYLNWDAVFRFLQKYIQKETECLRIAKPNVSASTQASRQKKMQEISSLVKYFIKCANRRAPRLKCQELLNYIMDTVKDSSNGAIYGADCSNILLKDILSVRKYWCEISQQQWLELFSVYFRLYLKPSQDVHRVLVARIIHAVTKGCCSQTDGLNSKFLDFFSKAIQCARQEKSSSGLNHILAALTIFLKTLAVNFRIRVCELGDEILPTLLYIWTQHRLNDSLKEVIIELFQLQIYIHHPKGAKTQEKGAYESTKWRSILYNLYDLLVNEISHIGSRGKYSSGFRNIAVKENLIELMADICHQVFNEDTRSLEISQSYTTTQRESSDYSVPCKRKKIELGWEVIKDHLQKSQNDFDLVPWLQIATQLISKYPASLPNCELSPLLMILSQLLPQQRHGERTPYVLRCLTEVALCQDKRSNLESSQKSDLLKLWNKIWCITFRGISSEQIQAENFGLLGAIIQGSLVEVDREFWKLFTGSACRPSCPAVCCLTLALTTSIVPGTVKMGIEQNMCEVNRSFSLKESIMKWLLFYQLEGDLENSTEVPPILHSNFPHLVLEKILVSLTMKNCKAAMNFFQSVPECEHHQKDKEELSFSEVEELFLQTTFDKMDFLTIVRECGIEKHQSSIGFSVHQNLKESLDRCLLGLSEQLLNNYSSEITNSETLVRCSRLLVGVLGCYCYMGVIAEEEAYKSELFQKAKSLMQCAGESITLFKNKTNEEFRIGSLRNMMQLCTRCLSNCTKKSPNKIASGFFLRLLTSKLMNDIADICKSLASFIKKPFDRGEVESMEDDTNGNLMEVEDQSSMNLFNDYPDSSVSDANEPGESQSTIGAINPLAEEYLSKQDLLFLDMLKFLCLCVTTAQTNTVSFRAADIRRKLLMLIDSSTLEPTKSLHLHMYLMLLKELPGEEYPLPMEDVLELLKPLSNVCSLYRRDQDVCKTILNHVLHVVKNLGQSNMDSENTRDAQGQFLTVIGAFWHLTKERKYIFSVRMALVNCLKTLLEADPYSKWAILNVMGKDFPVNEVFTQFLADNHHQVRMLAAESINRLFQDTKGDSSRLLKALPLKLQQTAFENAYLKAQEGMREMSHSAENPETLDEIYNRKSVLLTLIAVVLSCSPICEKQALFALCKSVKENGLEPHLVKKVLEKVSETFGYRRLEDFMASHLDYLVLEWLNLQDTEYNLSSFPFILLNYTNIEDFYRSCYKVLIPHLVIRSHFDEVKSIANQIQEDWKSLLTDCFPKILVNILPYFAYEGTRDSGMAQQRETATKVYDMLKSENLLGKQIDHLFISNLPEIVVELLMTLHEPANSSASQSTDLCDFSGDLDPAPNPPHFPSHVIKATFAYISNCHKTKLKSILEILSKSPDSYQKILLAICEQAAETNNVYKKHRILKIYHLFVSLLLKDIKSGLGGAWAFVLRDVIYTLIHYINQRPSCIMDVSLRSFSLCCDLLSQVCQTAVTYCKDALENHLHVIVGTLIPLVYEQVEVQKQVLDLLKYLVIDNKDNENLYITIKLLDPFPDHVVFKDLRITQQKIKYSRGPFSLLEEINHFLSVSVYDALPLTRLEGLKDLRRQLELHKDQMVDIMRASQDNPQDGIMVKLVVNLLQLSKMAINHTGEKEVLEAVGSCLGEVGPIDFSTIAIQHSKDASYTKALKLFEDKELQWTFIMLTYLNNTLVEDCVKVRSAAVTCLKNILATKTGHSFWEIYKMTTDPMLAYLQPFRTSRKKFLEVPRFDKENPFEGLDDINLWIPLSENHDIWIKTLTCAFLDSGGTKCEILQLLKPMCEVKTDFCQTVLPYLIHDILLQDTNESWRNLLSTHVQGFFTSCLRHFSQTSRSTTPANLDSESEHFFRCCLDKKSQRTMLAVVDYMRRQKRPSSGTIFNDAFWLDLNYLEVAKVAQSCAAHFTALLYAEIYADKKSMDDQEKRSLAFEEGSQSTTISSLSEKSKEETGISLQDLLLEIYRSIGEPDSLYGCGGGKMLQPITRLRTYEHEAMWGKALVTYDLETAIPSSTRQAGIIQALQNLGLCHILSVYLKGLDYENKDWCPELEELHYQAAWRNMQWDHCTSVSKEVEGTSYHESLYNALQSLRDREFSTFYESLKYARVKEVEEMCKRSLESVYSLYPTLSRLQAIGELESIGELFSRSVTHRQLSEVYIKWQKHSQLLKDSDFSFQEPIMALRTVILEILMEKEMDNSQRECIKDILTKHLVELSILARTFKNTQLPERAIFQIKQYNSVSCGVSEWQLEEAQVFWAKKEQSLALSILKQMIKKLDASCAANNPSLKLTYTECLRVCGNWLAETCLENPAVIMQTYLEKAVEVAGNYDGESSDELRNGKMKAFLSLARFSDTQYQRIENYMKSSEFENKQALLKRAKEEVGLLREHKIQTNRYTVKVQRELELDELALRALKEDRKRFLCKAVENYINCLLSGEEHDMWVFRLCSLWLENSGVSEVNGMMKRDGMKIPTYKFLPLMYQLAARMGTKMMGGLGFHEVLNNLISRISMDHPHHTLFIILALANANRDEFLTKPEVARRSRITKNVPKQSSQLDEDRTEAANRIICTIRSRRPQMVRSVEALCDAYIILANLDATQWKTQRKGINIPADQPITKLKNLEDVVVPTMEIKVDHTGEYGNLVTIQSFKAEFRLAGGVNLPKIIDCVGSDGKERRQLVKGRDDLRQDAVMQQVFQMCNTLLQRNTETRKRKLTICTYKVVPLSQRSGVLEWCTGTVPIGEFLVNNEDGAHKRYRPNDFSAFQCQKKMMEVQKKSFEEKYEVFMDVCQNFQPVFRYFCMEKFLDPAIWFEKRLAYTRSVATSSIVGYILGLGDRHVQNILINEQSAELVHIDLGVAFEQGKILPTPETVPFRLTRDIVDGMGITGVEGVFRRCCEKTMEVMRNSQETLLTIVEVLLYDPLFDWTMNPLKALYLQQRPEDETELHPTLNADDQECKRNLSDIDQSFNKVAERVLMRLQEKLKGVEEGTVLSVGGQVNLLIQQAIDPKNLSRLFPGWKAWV
- Method description: ATM inhibition test (phosphorylation of Chk2 generated by ionizing radiation, AlphaScreen SureFire)
- Type: cell-based
- Study conditions: phosphorylated Chk2 in NCI-H460 cells, ionizing radiation 8Gy, 1 hour after test compound treatment; read-out: ATM inhibitory activity
Readout type: IC50

Please give measured IC50 of the following entry: O=c1cc(N2CCOCC2)cc(-c2cccc3c2Sc2ccc(NC4CCC(N5CCOCC5)CC4)cc2S3)[nH]1 (stereo not shown)
0.1 to 0.5 µM

Please give measured IC50 of the following entry: COC[C@H](CN1CCOC[C@@H]1C)Nc1ccc2c(c1)Sc1cccc(-c3cc(N4CCOCC4)cc(=O)[nH]3)c1S2
< 0.1 µM

Please give measured IC50 of the following entry: Cc1cccc(CNc2ccc3c(c2)Cc2cccc(-c4cc(N5CCOCC5)cc(=O)[nH]4)c2O3)n1
0.1 to 0.5 µM

Please give measured IC50 of the following entry: Cc1cncc(C(CO)Nc2ccc3c(c2)Sc2cccc(-c4cc(N5CCOCC5)cc(=O)[nH]4)c2S3)c1 (stereo not shown)
0.1 to 0.5 µM

Please give measured IC50 of the following entry: Cc1ccc(C(Nc2ccc3c(c2)Sc2cccc(-c4cc(N5CCOCC5)cc(=O)[nH]4)c2S3)C2CN(C)CCO2)nc1 (single isomer, unassigned) [Example 1-52-1]
< 0.1 µM

Please give measured IC50 of the following entry: O=c1cc(N2CCOCC2)cc(-c2cccc3c2Sc2ccc(NCc4cccnn4)cc2C3)[nH]1
0.5 to 2 µM

Please give measured IC50 of the following entry: Cc1ccnc(C(CO)Nc2ccc3c(c2)Cc2cccc(-c4cc(N5CCOCC5)cc(=O)[nH]4)c2O3)c1 (single isomer, unassigned) [Example 2-14-91]
0.1 to 0.5 µM
